Exercise: for every item that follows, state its recorded GI50.
Tested on: HS 578T breast
methodNotes: NCI tumour cell line growth inhibition, 48 h

Lab note: compound Cn1cc(C2=C(Nc3ccccc3)C(=O)NC2=O)c2ccccc21 tested on HS 578T breast; recorded GI50 was > 25 µM

Lab note: compound Cc1[nH]c2cc(F)ccc2c1-c1nc2c3cccnc3c3ncccc3c2[nH]1 tested on HS 578T breast; recorded GI50 was 1.09 µM

Lab note: compound O=C1N(Cc2ccccc2Cl)c2ccccc2C12NN=C(c1cccc(Cl)c1)S2 (centres undefined) tested on HS 578T breast; recorded GI50 was 2.4 µM

Lab note: compound Cc1ccc(-n2nnnc2-c2cnc(N3CCOCC3)nc2-c2cccc(C(F)(F)F)c2)cc1 tested on HS 578T breast; recorded GI50 was 1.27 µM
